assay: in vitro; conditions: human, CC50, U2-OS ACE2 GFP cells
assay_readout: CC50 (µM)

[
  {
    "smiles_data": "COc1ccc2nc3cc(Cl)ccc3c(Nc3cc(CN4CCCC4)c(O)c(CN4CCCC4)c3)c2n1",
    "assay_value": 4.7
  }
]
